Listed below: IC50 values for each entry.
tested.on: USP7 (Homo sapiens, UniProt Q93009)
Construct: USP7, construct USP7 (208-1102) 6*His, Viva Biotech; 6xHis (C); purchased Viva Biotech
Sequence (Q93009 208-1102): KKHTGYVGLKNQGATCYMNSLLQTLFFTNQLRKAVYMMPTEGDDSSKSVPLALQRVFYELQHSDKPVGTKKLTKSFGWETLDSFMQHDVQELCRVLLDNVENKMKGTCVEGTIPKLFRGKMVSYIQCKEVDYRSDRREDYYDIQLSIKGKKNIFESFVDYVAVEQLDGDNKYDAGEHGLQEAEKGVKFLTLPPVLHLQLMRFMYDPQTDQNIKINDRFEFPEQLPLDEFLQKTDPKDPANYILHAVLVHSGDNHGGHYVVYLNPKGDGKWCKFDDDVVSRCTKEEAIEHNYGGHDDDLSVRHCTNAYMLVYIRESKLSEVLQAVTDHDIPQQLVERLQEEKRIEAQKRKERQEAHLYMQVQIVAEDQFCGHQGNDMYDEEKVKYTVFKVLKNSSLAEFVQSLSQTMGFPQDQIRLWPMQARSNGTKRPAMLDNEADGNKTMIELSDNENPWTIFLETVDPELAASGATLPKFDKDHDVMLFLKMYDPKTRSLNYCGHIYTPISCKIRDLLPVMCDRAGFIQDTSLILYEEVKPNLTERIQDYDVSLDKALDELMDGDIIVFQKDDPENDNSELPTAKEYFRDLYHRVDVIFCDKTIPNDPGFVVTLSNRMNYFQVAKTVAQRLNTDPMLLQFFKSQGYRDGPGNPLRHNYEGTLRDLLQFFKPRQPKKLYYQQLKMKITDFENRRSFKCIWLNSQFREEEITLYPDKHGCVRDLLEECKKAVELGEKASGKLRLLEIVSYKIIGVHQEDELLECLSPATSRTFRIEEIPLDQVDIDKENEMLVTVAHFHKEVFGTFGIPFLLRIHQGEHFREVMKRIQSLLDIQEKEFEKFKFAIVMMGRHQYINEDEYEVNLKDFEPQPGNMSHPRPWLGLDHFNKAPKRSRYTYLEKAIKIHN
experiment.notes: USP7 Assay A (Ubitquin-Rhodamine 110 Assay)
Format: biochemical
reported.conditions: USP7 assay A and B (table does not say which assay per compound); read-out: USP7_IC50
Procedure: Each assay was performed in a final volume of 15 μL in assay buffer containing 20 mM Tris-HCl (pH 8.0, (1M Tris-HCl, pH 8.0 solution; Corning 46-031-CM)), 1 mM GSH (L-Glutathione reduced; Sigma #G4251), 0.03% BGG ([…], Sigma, #G7516-25G), and 0.01% Triton X-100 (Sigma, #T9284-10L). […] Fluorescence was read on the Envision (Excitation at 485 nm and Emission at 535 nm; Perkin Elmer) or on the PheraSTAR (Excitation at 485 nm and Emission at 535 nm; BMG Labtech). […]

Previously resolved entries follow.
• O=C(C1CC1)N1CCC(O)(Cn2cnc3c(cnn3-c3ccc(N4CCC5(CCOCC5)C4)cc3)c2=O)CC1 [Compound I-1216] = 1000 to 10000 nM
• CN(C)c1ccc(-n2ncc3c(=O)n(CC4(O)CCN(C(=O)c5ccc(F)cc5)CC4)cnc32)cc1 [Compound I-707] = 200 to 1000 nM
• CN1CCN(c2ccc(-c3ccc(-n4ncc5c(=O)n(CC6(O)CCN(C(=O)C7CC7)CC6)cnc54)cc3)cc2)CC1 [Compound I-844] = < 200 nM
• O=C(Nc1cccnc1)N1CCC(O)(Cn2cnc3c(cnn3-c3ccc(F)cc3)c2=O)CC1 [Compound I-1708] = 1000 to 10000 nM
• Cc1ccc(-n2ncc3c(=O)n(CC4(O)CCN(C(=O)c5ccc(Oc6ccccn6)cc5)CC4)cnc32)cc1 [Compound I-1510] = 200 to 1000 nM
• Cc1ccc(-n2ncc3c(=O)n(CC4(O)CCN(C(=O)c5ccc(OC6CCNCC6)cc5)CC4)cnc32)cc1 [Compound I-1145] = 1000 to 10000 nM

Annotate the compound CC1(C(=O)N2CCC(O)(Cn3cnc4c(cnn4-c4ccc(F)cc4)c3=O)CC2)CCC1 [Compound I-464] with its measured IC50.
200 to 1000 nM

Report IC50 for O=C(c1cnc(C2CC2)o1)N1CCC(O)(Cn2cnc3c(cnn3-c3ccc(C(F)(F)F)cc3)c2=O)CC1 [Compound I-1437]
1000 to 10000 nM

These entries and their values trace back to patent US9902728B2.
